# experimental.protocol: Stability in human plasma assessed as half life measured for 120 mins by LC-MS/MS analysis
# Assay type: ADME, cell-free
metric: half-life (h)
Could you give me the number in h? Just the number is fine.

stdin: Name the recorded half-life for CC[C@H](C)n1cnnc1-c1cccc(NC(=O)c2cccc3c2nc(CN)n3C)n1 .
stdout: 2.1

The record that follows has no half-life shown yet.
stdin: Name the recorded half-life for CCC(C)n1cnnc1-c1cccc(NC(=O)c2cccc3c2OCC(N)C3)n1 (stereo not drawn) .
stdout: 3.38

---

# experimental.protocol: Cytotoxicity against PBMC (unknown origin) assessed as inhibition of ATP level incubated for 3 days by Cell Titer Glo assay
# Assay type: toxicity, cell-based
Mark yes only when IC50 at 3 days stays strictly below 1000 nM. Values equal to the cut-off are no.

Please review the entries below; each comes with its answer.
stdin: Check if IC50 at 3 days falls below 1000 nM for CNCc1cc(OC)cc2c1CN(c1cccc(-c3nncn3C(C)C)n1)C2=O .
stdout: no

stdin: Next: CNCc1cc(OC)cc2c1CN(c1cccc(-c3nncn3[C@@H](C)CC(F)(F)F)n1)C2=O
stdout: yes

stdin: Next: CCCn1cnnc1-c1cccc(N2Cc3c(cc(N4CCC[C@H]4C)nc3CNC)C2=O)n1
stdout: no

We next turn to a different compound, shown below.
stdin: Check if IC50 at 3 days falls below 1000 nM for CCCn1c(C)nnc1-c1cccc(N2Cc3c(cc(N(C)C(C)C)nc3CNC)C2=O)n1 .
stdout: no

Values from ChEMBL document CHEMBL6078692
